The reported measurements were obtained from PubChem BioAssay.

Recorded composite z-score values for a group of molecules are listed next.
target.under.test: Carbonic anhydrase 2 (Homo sapiens) (UniProt P00918)
measurement.notes: CAII small-molecule binders, profiling panel, biochemical, small-molecule microarray, Alexa647-labelled CAII (AID 1122)
condition.description: CAII-A647 binding fluorescence, higher = more signal

CCOC(=O)[C@H](CC(C)C)NC(=O)CCC1CC(OC(=O)NCc2cccc3ccccc23)CC2(CCCC(COC(=O)NCc3cccc(C(F)(F)F)c3)O2)O1 (some centres not stated)    -0.0249
O=C1C[C@@H](O)[C@@H](O)[C@@H]2[C@@H]3C(=O)N(C[C@@H]4CCCO4)C(=O)[C@@H]3CC[C@H]12    0.0413
COc1cccc([C@H]2Oc3ccc(OC)cc3C(=NO[C@@H]3O[C@H](COC(C)=O)[C@@H](OC(C)=O)[C@H](OC(C)=O)[C@H]3OC(C)=O)[C@@H]2O)c1    -0.403
CCOC(=O)[C@H](Cc1ccccc1)NC(=O)CCC1CC(OC(=O)NCCc2ccc(F)cc2)CC2(CCCC(COC(=O)NCc3ccccc3)O2)O1 (some centres not stated)    0.108
CC(C)(C)N1C(=O)[C@H]2[C@H]3[C@H](O)C=CC(=O)[C@@H]3CC[C@H]2C1=O    -0.0943

Record lookup: for Carbonic anhydrase 2 (Homo sapiens) (UniProt P00918), what composite z-score belongs to CC[C@@H](c1ccccc1)n1c(=O)n2n(c1=O)[C@H]1[C@H](O)[C@@H]3O[C@@H]3C(=O)[C@H]1CC2 ? -0.245

Record lookup: for Carbonic anhydrase 2 (Homo sapiens) (UniProt P00918), what composite z-score belongs to CCOC(=O)[C@H](CC(C)C)NC(=O)CCC1CC(OC(=O)NCCc2ccc(F)cc2)CC2(CCCC(COC(=O)NCC3CCCCC3)O2)O1 (some centres not stated) ? 0.255

====

measurement.notes: mitochondrial membrane potential change in A549 cells, profiling panel, cell-based, JC-1 fluorescence, basal, 24 h, 100 nL (AID 1138);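 further: A549 lung adenocarcinoma cells under basal conditions with no added stimulus; test concentration not given here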
condition.description: higher = more signal
z-score below 0.5 gives class 0; z-score at or above it gives class 1.

z-score >= 0.5 for C#CCCCON=C1C[C@@H](O)[C@@H](O)[C@@H]2[C@@H]3C(=O)N(Cc4ccccc4)C(=O)[C@@H]3CC[C@@H]12 ? class 0

z-score >= 0.5 for O=C1C[C@@H](O)[C@@H](O)[C@@H]2[C@@H]3C(=O)N(C[C@@H]4CCCO4)C(=O)[C@@H]3CC[C@@H]12 ? class 1

z-score >= 0.5 for COCCNC(=O)OCC1CCCC2(CC(OC(=O)NCc3ccc4c(c3)OCO4)CC(CCC(=O)N[C@@H](C)C(=O)OC)O2)O1 (stereo not given in full) ? class 0

z-score >= 0.5 for CCCCC#C[C@@H]1C=C[C@H](Oc2ccc(C(=O)OC)cc2)[C@@H](COC(=O)OCC)O1 ? class 0

z-score >= 0.5 for CCOC(=O)NN=C1C[C@@H](O)[C@@H](O)[C@@H]2[C@@H]3C(=O)N(c4ccc(F)cc4F)C(=O)[C@@H]3CC[C@@H]12 ? class 0

====

measurement.notes: anti-His antibody binders, primary screen, artefact control for SMM control protein annotation, biochemical, small-molecule microarray, 635 nm fluorescence (AID 1128);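 further: score merges feature fluorescence with signal-to-noise for each printed compound spot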
condition.description: anti-His Alexa647 antibody binding, higher = more signal
Recorded composite z-score values for a group of compounds are listed next.
In your answer, state the number alone without any accompanying words.

Known composite z-score results, listed for orientation:
C#CCCCON=C1C[C@@H](O)[C@@H](O)[C@@H]2[C@@H]3C(=O)N(c4ccc(F)cc4F)C(=O)[C@@H]3CC[C@H]12    0.968
COc1cccc([C@H]2Oc3ccc(OC)cc3C(=NO[C@@H](C)c3cn([C@H](CO)Cc4ccccc4)nn3)[C@@H]2O)c1    -2.13
CO[C@H]1COC(=O)[C@H](C)NC(=O)CC=C[C@@H](C)[C@H](OC)COC(=O)[C@@H](OCc2ccccc2)C=C[C@@H]1C    -0.435

Consider the compound CC(C)=NO[C@H](C)c1cn([C@H](CO)Cc2ccccc2)nn1 and give its measured composite z-score. 1.28

Consider the compound COC(=O)CC=C[C@@H](C)[C@@H](C=NOC[C@@H](O)[C@H]1O[C@@H]2OC(C)(C)O[C@@H]2[C@H]1O)NS(=O)(=O)c1ccc(C)cc1 and give its measured composite z-score. 1.93

Consider the compound COc1ccc(O[C@H]2C=C[C@@H](c3ccccc3)O[C@@H]2COC(=O)CCC(C)=NO[C@@H]2O[C@H](COC(C)=O)[C@@H](OC(C)=O)[C@H](OC(C)=O)[C@H]2OC(C)=O)cc1 and give its measured composite z-score. 0.487

Consider the compound O=C1C=C[C@@H](O)[C@@H]2[C@@H]3C(=O)N(c4ccc(F)cc4F)C(=O)[C@@H]3CC[C@@H]12 and give its measured composite z-score. -0.0956

Consider the compound CCN1C(=O)[C@H]2[C@H]3[C@H](O)[C@H](O)CC(=NO[C@@H](C)c4cn([C@H](CO)Cc5ccccc5)nn4)[C@@H]3CC[C@H]2C1=O and give its measured composite z-score. 3.32

====

Recorded z-score values for a group of compounds are listed next.
measurement.notes: PSAC antagonists in infected red cells, primary screen, cell-based, P. falciparum Indochina, OD700, 2 h (AID 1155);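 further: lysis reports solute entry through the parasite surface anion channel PSAC; channel blockers reduce lysis of infected cells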
condition.description: P. falciparum Indochina infected erythrocytes, osmotic lysis OD700; higher = more signal, called active from +8 up or from −8 down
In your answer, state the number alone without any accompanying words.

Known z-score results, listed for orientation:
CC(C)CON=C1C[C@@H](O)[C@@H](O)[C@@H]2[C@@H]3C(=O)N(C(C)(C)C)C(=O)[C@@H]3CC[C@H]12    -0.239
COC(=O)CC=C[C@@H](C)[C@@H](C=NO[C@@H]1O[C@H](COC(C)=O)[C@@H](OC(C)=O)[C@H](OC(C)=O)[C@H]1OC(C)=O)NS(=O)(=O)c1ccc(C)cc1    0.54
CO[C@H]1COC(=O)[C@@H](Cc2ccccc2)NC(=O)[C@@H](C)COC(=O)CCC[C@@H]1C    -1.66
C=CC[C@@H]1C=C[C@H](ON=C(C)CCN2CCc3nc(-c4ccccc4)c(-c4ccccc4)cc3C2)[C@@H](CO)O1    0.809
CC(C)CON=C1C[C@@H](O)[C@@H](O)[C@@H]2[C@@H]3C(=O)N(C4CCCCC4)C(=O)[C@@H]3CC[C@H]12    0.193

Consider the compound CCCNC(=O)OC[C@H]1O[C@H](CCON=C(C)CCN2CCCc3nc(C)c(C)cc32)C=C[C@@H]1Oc1ccc(OC)cc1 and give its measured z-score. 0.722

Consider the compound CC(C)CON=C1C[C@@H](O)[C@@H](O)[C@@H]2[C@@H]3C(=O)N(Cc4ccc5c(c4)OCO5)C(=O)[C@@H]3CC[C@H]12 and give its measured z-score. 0.32

Consider the compound CCOC(=O)[C@H](Cc1ccccc1)NC(=O)CCC1CC(OC(=O)NCc2cccc3ccccc23)CC2(CCCC(COC(=O)NCCC(C)C)O2)O1 (stereo partly drawn) and give its measured z-score. 1.95

Consider the compound CC(C)(C)N1C(=O)[C@H]2[C@H]3[C@H](O)C=CC(=O)[C@@H]3CC[C@H]2C1=O and give its measured z-score. -0.566

Consider the compound CCOC(=O)NN=C1C[C@@H](O)[C@@H](O)[C@@H]2[C@@H]3C(=O)N(c4ccc(F)cc4F)C(=O)[C@@H]3CC[C@@H]12 and give its measured z-score. 0.719

Consider the compound C[n+]1ccc(-c2ccc(CO)cc2)cc1 and give its measured z-score. -0.376

Consider the compound COC(=O)[C@H](C)NC(=O)CCC1CC(OC(=O)NCCc2ccc(F)cc2)CC2(CCCC(COC(=O)NCc3cccc(C(F)(F)F)c3)O2)O1 (stereo partly drawn) and give its measured z-score. 0.445

Consider the compound O=C(NN=C1C[C@@H](O)[C@@H](O)[C@@H]2[C@@H]3C(=O)N(C4CCCCC4)C(=O)[C@@H]3CC[C@@H]12)OCc1ccccc1 and give its measured z-score. 0.586

Consider the compound CC(C)=NO[C@H](C)c1cn([C@H](CO)Cc2ccccc2)nn1 and give its measured z-score. 0.0191

Consider the compound CCN1C(=O)[C@H]2[C@H]3[C@H](O)[C@H](O)CC(=NOCC(C)C)[C@@H]3CC[C@H]2C1=O and give its measured z-score. 0.365

Consider the compound C[C@@H]1C=CCC(=O)OC[C@H]2O[C@@H](C=C[C@@H]2O)[C@H](C)C=CCC(=O)OC1 and give its measured z-score. -1.48

Consider the compound C#CCCCON=C1C[C@@H](O)[C@@H](O)[C@@H]2[C@@H]3C(=O)N(Cc4ccccc4)C(=O)[C@@H]3CC[C@@H]12 and give its measured z-score. 0.579

Consider the compound CON=C[C@@H](C)[C@H](OCc1ccccc1)C(C)C and give its measured z-score. 0.234

Consider the compound CCOC(=O)[C@H](Cc1ccccc1)NC(=O)CCC1CC(OC(=O)NCCc2ccc(F)cc2)CC2(CCCC(COC(=O)NCCOC)O2)O1 (stereo partly drawn) and give its measured z-score. 4.99

Consider the compound CCCNC(=O)OC[C@H]1O[C@H](CCON=C(C)C)C=C[C@@H]1Oc1ccc(OC)cc1 and give its measured z-score. 0.411

Consider the compound C[C@@H](c1ccccc1)N1C(=O)[C@H]2[C@H]3[C@H](O)[C@H](O)CC(=NOCc4ccccc4)[C@H]3CC[C@H]2C1=O and give its measured z-score. 6.36

Consider the compound CCc1cc2c(nc1CC)CCN(CCC(C)=NOC[C@H]1O[C@H](c3ccccc3)C=C[C@@H]1Oc1ccc(OC)cc1)C2 and give its measured z-score. -0.735

Consider the compound COC(=O)[C@@H]1CC[C@H](C)[C@@H](c2ccc(C)cc2)N1C(=O)c1ccc(C=NO[C@@H]2O[C@H](COC(C)=O)[C@@H](OC(C)=O)[C@H](OC(C)=O)[C@H]2OC(C)=O)cc1 and give its measured z-score. -0.647
